Reported Gl50 Growth Inhibition, NCI-H460 is given for each of the following compounds.
# Tested on: NCI-H460 (lung)
# assayComment: Sulforhodamine B human cancer cell growth inhibition, NCI-H460
# Assay type: cell-based
# conditionsUsed: NCI-H460 lung cell line, compounds in DMSO, 48 h

compound	tgt	Gl50 Growth Inhibition, NCI-H460
C=C(C)[C@@H]1CC[C@]2(C=O)CC[C@]3(C)[C@H](CC[C@@H]4[C@@]5(C)CC[C@H](OC(C)=O)C(C)(C)[C@@H]5CC[C@]43C)[C@@H]12 [Compound 1, 3-O-Acetyl-28-betulinal]	NCI-H460 (lung)	>10 µg/mL
C=C(CBr)[C@@H]1CC[C@]2(COC(C)=O)CC[C@]3(C)[C@H](CC[C@@H]4[C@@]5(C)CC[C@H](OC(C)=O)C(C)(C)[C@@H]5CC[C@]43C)[C@@H]12 [Compound 12, 3,28-Di-O-acetyl-30-bromo-betulin]	NCI-H460 (lung)	>10 µg/mL
C=C(CNC(=O)[C@H](C)[C@@H](OC)[C@@H]1CCCN1C(=O)OC(C)(C)C)[C@@H]1CC[C@]2(COC(C)=O)CC[C@]3(C)[C@H](CC[C@@H]4[C@@]5(C)CC[C@H](OC(C)=O)C(C)(C)[C@@H]5CC[C@]43C)[C@@H]12 [Compound 15b]	NCI-H460 (lung)	>10 µg/mL
C=C(C)[C@@H]1CC[C@]2(COC(C)=O)CC[C@]3(C)[C@H](CC[C@@H]4[C@@]5(C)CCC(N)C(C)(C)[C@@H]5CC[C@]43C)[C@@H]12 (single isomer, unassigned) [Compound 9a, 3-α/β-Amino-28-O-acetyl-betulin]	NCI-H460 (lung)	6.0 µg/mL
C=C(C)[C@@H]1CC[C@]2(CNC(=O)[C@H](C)[C@@H](OC)[C@@H]3CCCN3C(=O)C[C@@H](OC)[C@H]([C@@H](C)CC)N(C)C(=O)[C@@H](NC(=O)[C@H](C(C)C)N(C)C)C(C)C)CC[C@]3(C)[C@H](CC[C@@H]4[C@@]5(C)CC[C@H](OC(C)=O)C(C)(C)[C@@H]5CC[C@]43C)[C@@H]12 [Compound 7a]	NCI-H460 (lung)	4.2 µg/mL
C=C(C)[C@@H]1CC[C@]2(COC(C)=O)CC[C@]3(C)[C@H](CC[C@@H]4[C@@]5(C)CCC(N)C(C)(C)[C@@H]5CC[C@]43C)[C@@H]12 (single isomer, unassigned) [Compound 9b, 3-α/β-Amino-28-O-acetyl-betulin]	NCI-H460 (lung)	0.21 µg/mL
C=C(CNC(=O)[C@H](C)[C@@H](OC)[C@@H]1CCCN1C(=O)OC(C)(C)C)[C@@H]1CC[C@]2(CO)CC[C@]3(C)[C@H](CC[C@@H]4[C@@]5(C)CC[C@H](O)C(C)(C)[C@@H]5CC[C@]43C)[C@@H]12 [Compound 15a, 30-N-(Boc-dap)-betulin]	NCI-H460 (lung)	>10 µg/mL
C=C(C)[C@@H]1CC[C@]2(/C=N/O)CC[C@]3(C)[C@H](CC[C@@H]4[C@@]5(C)CC[C@H](OC(C)=O)C(C)(C)[C@@H]5CC[C@]43C)[C@@H]12 [Compound 2, 3-O-Acetyl-28-oxime-betulin]	NCI-H460 (lung)	4.1 µg/mL
C=C(CN)[C@@H]1CC[C@]2(CO)CC[C@]3(C)[C@H](CC[C@@H]4[C@@]5(C)CC[C@H](O)C(C)(C)[C@@H]5CC[C@]43C)[C@@H]12 [Compound 14, 30-Amino-betulin]	NCI-H460 (lung)	4.0 µg/mL
C=C(C)[C@@H]1CC[C@]2(COC(C)=O)CC[C@]3(C)[C@H](CC[C@@H]4[C@@]5(C)CC[C@H](NC(=O)[C@H](C)[C@@H](OC)[C@@H]6CCCN6C(=O)C[C@@H](OC)[C@H]([C@@H](C)CC)N(C)C(=O)[C@@H](NC(=O)[C@H](C(C)C)N(C)C)C(C)C)C(C)(C)[C@@H]5CC[C@]43C)[C@@H]12 [Compound 11a]	NCI-H460 (lung)	>10 µg/mL
C=C(CNC(=O)[C@H](C)[C@@H](OC)[C@@H]1CCCN1C(=O)C[C@@H](OC)[C@H]([C@@H](C)CC)N(C)C(=O)[C@@H](NC(=O)[C@H](C(C)C)N(C)C)C(C)C)[C@@H]1CC[C@]2(COC(C)=O)CC[C@]3(C)[C@H](CC[C@@H]4[C@@]5(C)CC[C@H](OC(C)=O)C(C)(C)[C@@H]5CC[C@]43C)[C@@H]12 [Compound 16a]	NCI-H460 (lung)	>10 µg/mL
